tested on: NCI-H522 lung; assay: NCI tumour cell line growth inhibition, 48 h
List of TGI values.
measurement.name: TGI (µM)

[
  {
    "compound": "C=C(C1=CC(=O)C(C)(C)O1)[C@@H]1CC=C([C@@H]2CC[C@H]3[C@@]2(C)CC[C@H]2C(C)(C)C(=O)[C@H](OC(=O)CC(C)(O)CC(=O)O)C[C@]32C)[C@H](O)O1 (some centres undefined)",
    "u": "µM",
    "reading.qualifier": "=",
    "data.value": 25.4
  },
  {
    "compound": "CCOc1cc(/C=C2\\N=C(c3ccccc3)N(c3nc4ccccc4s3)C2=O)ccc1O",
    "u": "µM",
    "reading.qualifier": "=",
    "data.value": 60
  },
  {
    "compound": "COc1cc(OC)cc(C(=O)Cc2c(C(=O)c3ccccc3)c3ccccc3n2C(=O)c2ccccc2)c1",
    "u": "µM",
    "reading.qualifier": "=",
    "data.value": 45
  },
  {
    "compound": "COCC(=O)NC/C=C/c1ccc2ncnc(Nc3ccc(Oc4ccc(C)nc4)c(C)c3)c2c1",
    "u": "µM",
    "reading.qualifier": "=",
    "data.value": 25.8
  },
  {
    "compound": "COc1cc(C(=O)N(C(=S)OC23CC4CC(CC(C4)C2)C3)c2ccccc2)cc(OC)c1OC",
    "u": "µM",
    "reading.qualifier": "=",
    "data.value": 25.9
  },
  {
    "compound": "[N-]=[N+]=NC1C2CC3CC(C2)CC1C3 (centres undefined)",
    "u": "µM",
    "reading.qualifier": ">",
    "data.value": 100
  },
  {
    "compound": "COc1ccc2c(c1OC)C(C=C(c1ccccc1)c1ccccc1)CN(C)C2 (centres undefined)",
    "u": "µM",
    "reading.qualifier": "=",
    "data.value": 41.5
  },
  {
    "compound": "COc1ncc(C#CC(=O)c2ccccc2)c(OC)n1",
    "u": "µM",
    "reading.qualifier": "=",
    "data.value": 2.81
  },
  {
    "compound": "Cc1cc(C)c(O)c(CNCCCNCc2cc(C)cc(C)c2O)c1",
    "u": "µM",
    "reading.qualifier": "=",
    "data.value": 14.1
  }
]

###

system: 786-0 renal; assay: NCI tumour cell line growth inhibition, 48 h
Catalogue of compounds with associated TGI

[
  {
    "compound": "COc1ccc2[nH]c3c(C)c4ncccc4c(C)c3c2c1",
    "reading.qualifier": "=",
    "TGI, µM": 2.85
  },
  {
    "compound": "COc1ccc2c(c1)C=C(C(C)(C)C)NS2(=O)=O",
    "reading.qualifier": ">",
    "TGI, µM": 100
  },
  {
    "compound": "CC(C)(C)C1CCC(=O)C(C(O)CC2CC(=O)N(c3ccccc3)C(=O)C2)C1 (centres undefined)",
    "reading.qualifier": ">",
    "TGI, µM": 100
  },
  {
    "compound": "C=C(C1=CC(=O)C(C)(C)O1)[C@@H]1CC=C([C@@H]2CC[C@H]3[C@@]2(C)CC[C@H]2C(C)(C)C(=O)[C@H](OC(=O)CC(C)(O)CC(=O)O)C[C@]32C)[C@H](O)O1 (some centres undefined)",
    "reading.qualifier": "=",
    "TGI, µM": 24.4
  }
]
